B1: Caulobacter ParB omega fusion; a variant is named by its letters at X, in order, B8GW30 (parent)
chain: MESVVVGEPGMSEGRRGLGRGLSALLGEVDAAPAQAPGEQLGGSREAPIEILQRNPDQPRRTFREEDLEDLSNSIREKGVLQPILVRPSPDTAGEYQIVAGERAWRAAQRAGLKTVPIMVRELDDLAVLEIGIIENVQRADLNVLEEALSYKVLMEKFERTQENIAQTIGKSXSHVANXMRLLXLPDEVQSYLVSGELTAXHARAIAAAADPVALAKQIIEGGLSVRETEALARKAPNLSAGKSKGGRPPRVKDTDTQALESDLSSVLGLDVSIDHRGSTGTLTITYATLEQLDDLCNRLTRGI

# Variants of: B1
# method.description: one-hybrid fitness for binding NBS DNA (the Noc-binding site; scaled: cognate 1, non-cognate 0); higher = stronger binding
# condition.context: with NBS DNA site
Whole data set: some 81,000 sequences, median “one-hybrid fitness for binding NBS DNA” near -0.1, cut for the highest 2% near 0.36. The sample holds the highest values, similar sequences and a random draw of the others, so the mix is not that of the screen.
Reported one-hybrid fitness for binding NBS DNA is given for each of the following variants.

Worked examples, 4 variants total:
>>> val("QRCC")
0.389
>>> val("LSRK")
"≤ 0.2"
>>> val("RVTY")
"≤ 0.2"
>>> val("MCAC")
"≤ 0.2"

Challenge: Return one-hybrid fitness for binding NBS DNA (reported value) for this variant: "RVTH"
Response given: ≤ 0.2

Challenge: Recall and state the measured one-hybrid fitness for binding NBS DNA for "RVTN" .
Response given: ≤ 0.2

Challenge: Hello, please tell me recorded one-hybrid fitness for binding NBS DNA for this one: "RVTS"
Response given: 0.392

Challenge: Return value of one-hybrid fitness for binding NBS DNA for input "QRCN" , no commentary.
Response given: 0.397

Challenge: State its one-hybrid fitness for binding NBS DNA: "QGRA"
Response given: ≤ 0.2

Challenge: Please list one-hybrid fitness for binding NBS DNA recorded for the variant "RVTT"
Response given: 0.449

Challenge: Please give the documented one-hybrid fitness for binding NBS DNA of "PVFR"
Response given: ≤ 0.2

Challenge: Quickly give me recorded one-hybrid fitness for binding NBS DNA for "AHDA"
Response given: ≤ 0.2
